Cited source for all entries: patent US20240140953A1

Tested on: MOLM-13 (MLL-AF9)
protocol: LTP assay, CellTiterGlo, T4-T14 (Example 103), MOLM-13
Assay type: cell-based, human
assay.setup: Homo sapiens, MOLM-13, MOLM-13 (MLL-AF9), T7; read-out: IC50 T7
measure: IC50 (µM)

• O=C(Cc1cc(-c2cccnc2)n[nH]1)Nc1ccc(-c2nc3c(N4CCOCC4)ncnc3[nH]2)cc1 = 5.75
• Cn1nc(-c2cccnc2)cc1CC(=O)Nc1ccc(-c2cc3c(N4CCOCC4)ncnc3[nH]2)cc1 = 0.513
• O=C(Nc1ccc(-c2nc3c(N4CCOCC4)nccc3[nH]2)cc1)Nc1cc(-c2cccnc2)n[nH]1 = 0.74
